- Assay Name: qHTS of pediatric cancer cell lines to identify multiple opportunities for drug repurposing: Primary screen for control Hh wild type fibroblast cells (AID 1347106);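 also: a drop in luminescence marks cytotoxicity and a rise apparent proliferation; nearly all actives have a fitted effect of over 55% in size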
- Test Settings: Hh wild-type fibroblast viability, CellTiter-Glo luminescence, 48 h; series mostly up to 46 µM
Inconclusive results are not listed. Calls of active or inactive are those of the source. Calls follow the shape of the dose curve; as a rule, active = well fitted cell-killing curve with a large enough effect; inconclusive = small, poorly fitted or top-dose-only effect; inactive = flat fitted curve, though single readings scatter.
Readout: activity change, negative = cytotoxic

[[record]]
compound = "COc1ccc(C(=O)NCc2ccc(OCCN(C)C)cc2)cc1OC"
readout = "activity change, negative = cytotoxic"
val = "inactive"

[[record]]
compound = "CCN(CC)CC1CCCCN1CC(=O)N1c2ccccc2C(=O)Nc2cccnc21 (configuration not stated)"
readout = "activity change, negative = cytotoxic"
val = "inactive"

[[record]]
compound = "CCOC(=O)OC(C)OC(=O)[C@@H]1N2C(=O)[C@@H](NC(=O)[C@H](N)c3ccccc3)[C@H]2SC1(C)C (some centres not stated)"
readout = "activity change, negative = cytotoxic"
val = "inactive"

[[record]]
compound = "CCOc1cc(NC(C)=O)ccc1C(=O)OC"
readout = "activity change, negative = cytotoxic"
val = "inactive"

[[record]]
compound = "CC(C)c1cc2c(cc1S(=O)(=O)O)[C@@]1(C)CCC[C@@](C)(C(=O)O)[C@@H]1CC2"
readout = "activity change, negative = cytotoxic"
val = "inactive"

[[record]]
compound = "O[C@@H]1CO[C@H]2[C@@H]1OC[C@@H]2O"
readout = "activity change, negative = cytotoxic"
val = "inactive"

[[record]]
compound = "Cc1cccc(Nc2ccccc2C(=O)O)c1C"
readout = "activity change, negative = cytotoxic"
val = "inactive"

